experimentalSystem: Cytochrome P450 2D6 (Homo sapiens)
Sequence (P10635 whole entry): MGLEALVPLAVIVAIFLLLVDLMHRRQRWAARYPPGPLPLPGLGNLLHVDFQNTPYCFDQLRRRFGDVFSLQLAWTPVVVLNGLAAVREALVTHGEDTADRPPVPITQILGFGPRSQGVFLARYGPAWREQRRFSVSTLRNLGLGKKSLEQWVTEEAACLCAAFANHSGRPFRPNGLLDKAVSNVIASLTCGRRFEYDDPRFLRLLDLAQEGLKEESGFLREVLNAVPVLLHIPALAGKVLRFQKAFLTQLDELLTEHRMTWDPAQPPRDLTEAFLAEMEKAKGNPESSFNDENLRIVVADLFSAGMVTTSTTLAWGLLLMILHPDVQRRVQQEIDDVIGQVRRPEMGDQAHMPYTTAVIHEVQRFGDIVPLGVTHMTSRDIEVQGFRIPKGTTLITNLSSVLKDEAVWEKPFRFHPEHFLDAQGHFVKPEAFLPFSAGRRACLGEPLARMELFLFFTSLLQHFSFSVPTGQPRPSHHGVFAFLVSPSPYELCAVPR
testReadout: AC50

Entry CCNc1ncc2nc(-c3ccc(Cl)cc3)c(=O)n(Cc3cccs3)c2n1 , system Cytochrome P450 2D6 (Homo sapiens): what AC50 was measured?;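 note: CYP2D6 member of a cytochrome P450 panel assay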
25.1 µM (inconclusive)

Again, but for CCCCNC(=O)C1CC(=O)N(c2ccc(OC)cc2)C1c1ccc(OC)cc1 (stereo not given)
15.8 µM (inconclusive)

Again, but for Cc1ccccc1-c1cc(N(C)Cc2ccco2)ncn1
39.8 µM (inconclusive)

Again, but for Cc1cccc(NC(S)=NNC(=O)c2csc3c2CCCC3)c1
25.1 µM (inconclusive)

Again, but for O=P(Nc1ccccc1)(Nc1ccccc1)Oc1cccc(Cl)c1
15.8 µM (inconclusive)
